target-entity: PLK1 (human) (UniProt P53350)
Sequence (P53350 whole entry, looked up): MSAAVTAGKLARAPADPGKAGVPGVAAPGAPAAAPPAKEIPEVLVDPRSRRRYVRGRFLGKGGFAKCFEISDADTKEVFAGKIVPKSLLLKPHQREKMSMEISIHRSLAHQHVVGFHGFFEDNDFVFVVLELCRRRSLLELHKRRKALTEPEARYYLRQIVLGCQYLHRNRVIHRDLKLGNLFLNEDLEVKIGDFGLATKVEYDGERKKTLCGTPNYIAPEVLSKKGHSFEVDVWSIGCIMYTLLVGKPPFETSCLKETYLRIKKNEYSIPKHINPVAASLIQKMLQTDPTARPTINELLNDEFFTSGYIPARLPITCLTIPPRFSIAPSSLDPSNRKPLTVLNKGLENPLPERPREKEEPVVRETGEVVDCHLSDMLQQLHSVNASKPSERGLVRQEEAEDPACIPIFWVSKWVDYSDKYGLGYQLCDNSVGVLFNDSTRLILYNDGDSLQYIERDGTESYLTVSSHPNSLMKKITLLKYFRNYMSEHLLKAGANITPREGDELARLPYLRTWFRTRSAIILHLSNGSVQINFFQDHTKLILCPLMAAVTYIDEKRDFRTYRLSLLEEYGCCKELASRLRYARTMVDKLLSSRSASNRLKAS
assay-protocol: radiometric filter-binding kinase assay, Kinase HotSpot
study-conditions: compound 0.5 µM; ATP 10 µM
outcome-measure: residual activity
Write your answer as a measured quantity: the number, then the unit.

Solved entries (count: 5):
c1ccc2c(-c3ccncc3)c[nH]c2c1: 102%
CC(C)(C)c1cc(C=C(C#N)C#N)cc(Br)c1O: 92.3%
Ic1cccc(CSc2nnc(-c3ccncc3)o2)c1: 98.6%
O=C1NC(=O)c2c1c1c3ccccc3[nH]c1n1cncc21: 50.8%
CN(C)S(=O)(=O)c1ccc2c(c1)/C(=C/c1cc3c([nH]1)CCCC3)C(=O)N2: 101%

Report residual activity for every entry below.
1. COc1ccc2c(c1)c(C1=C(c3c[nH]c4ccccc34)C(=O)NC1=O)cn2CCCN(C)C
2. O=C1c2ccccc2-c2nc3nnnn3nc21
3. CCCCc1c(-c2ccc(OC)cc2)[nH]c2nccnc12

Reply:
1. 104%
2. 28.6%
3. 104%

Report residual activity for every entry below.
1. COc1ccc(S(=O)(=O)N(CCO)c2ccccc2CN(C)C/C=C/c2ccc(Cl)cc2)cc1
2. Cc1cccc(-c2nc(C(C)(C)C)[nH]c2-c2ccc3c(c2)OCO3)n1

Reply:
1: 98.8%; 2: 105%
